# Relative potency values compiled below
System: lizard
protocol summary: Evaluated for relative potency in stimulating melanosome dispersion against Lizard skin (Anolis carolinensis).
Format: functional
The response must contain the number and no unit.

Below are worked cases with known answers.
CC(=O)N[C@@H]1CSSC[C@H](C(N)=O)NC(=O)[C@@H](Cc2c[nH]c3ccccc23)NC(=O)[C@H](CCCN=C(N)N)NC(=O)[C@@H](Cc2ccccc2)NC(=O)[C@H](Cc2c[nH]cn2)NC(=O)[C@@H](CCC(=O)O)NC1=O; 0.003
CSCC[C@H](NC(C)=O)C(=O)N[C@@H](CCC(=O)O)C(=O)N[C@@H](Cc1c[nH]cn1)C(=O)N[C@@H](Cc1ccccc1)C(=O)N[C@@H](CCCN=C(N)N)C(=O)N[C@@H](Cc1c[nH]c2ccccc12)C(=O)NCC(N)=O; 0.02
CC(=O)N[C@@H](CO)C(=O)N[C@@H](Cc1ccc(O)cc1)C(=O)N[C@@H](CO)C(=O)N[C@@H]1CSSC[C@H](C(=O)N[C@H](CCCCN)C(=O)N2CCC[C@@H]2C(=O)N[C@@H](C(N)=O)C(C)C)NC(=O)[C@@H](Cc2c[nH]c3ccccc23)NC(=O)[C@H](CCCN=C(N)N)NC(=O)[C@@H](Cc2ccccc2)NC(=O)[C@H](Cc2c[nH]cn2)NC(=O)[C@@H](CCC(=O)O)NC1=O; 32

Consider the record given below.
input: Looking for the measured Relative potency of `CC(=O)N[C@@H]1CSSC[C@H](C(=O)N[C@H](CCCCN)C(=O)N2CCC[C@@H]2C(=O)N[C@@H](C(N)=O)C(C)C)NC(=O)[C@@H](Cc2c[nH]c3ccccc23)NC(=O)[C@H](CCCN=C(N)N)NC(=O)[C@@H](Cc2ccccc2)NC(=O)[C@H](Cc2c[nH]cn2)NC(=O)[C@@H](CCC(=O)O)NC1=O` , can you help?
output: 1.6
